Cited source for all entries: patent US20220259593A1

System: K562 CRISPRi cells
Experiment: Constant region variant library pooled growth screen, K562
Assay type: cell-based, human
Settings: sgRNA constant region variants; activity relative to the original, un-modified constant region cr995
For each record, write down the corresponding Mean relative activity.
Numbers only.

cr245 (nucleic acid, listed as DNA, chemistry not fully specified) guide: GTTTAAGAGCTAAGCTGGAAACAGCATAGCAAGGTTAAATAAGACTAGTTCGTTATCAACTTGAAAAAGTGGCACCGAGTCGGTGCT = 0.00372
cr601 (nucleic acid, listed as DNA, chemistry not fully specified) guide: GTTTAAGAGCTAAGCTGGAAACAGCATAGAAAGTTTAAATAAGGCTAGTCCGTTATCAACTTGAAAAAGTGGCACCGAGTCGGTGCT = 0.8216
cr551 (nucleic acid, listed as DNA, chemistry not fully specified) guide: GTTTAAGAGCTAAGCTGGAAACAGCTTAGCAAGTTTAAATAAGGCTAGTCCGTTATCAACTTGAAAAAGTGGCACCGAGTCGGTGCT = −0.109

Okay, next one:
Form: molecule = cr705 (nucleic acid, listed as DNA, chemistry not fully specified) guide: GTTTAAGAGCTAAGCTGGAAACAGCATAGCAAGTTTAAATAAGGCTAGTCCGTTATCAACTTGAAAAAGTGGCACGGAGTCCGTGCT ; Mean relative activity = 0.8901
